# Target desc: furin, P09958;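 note: purified furin at 1:10 enzyme:substrate in 50 mM HEPES pH 7.5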
# Sequence (P09958 whole entry): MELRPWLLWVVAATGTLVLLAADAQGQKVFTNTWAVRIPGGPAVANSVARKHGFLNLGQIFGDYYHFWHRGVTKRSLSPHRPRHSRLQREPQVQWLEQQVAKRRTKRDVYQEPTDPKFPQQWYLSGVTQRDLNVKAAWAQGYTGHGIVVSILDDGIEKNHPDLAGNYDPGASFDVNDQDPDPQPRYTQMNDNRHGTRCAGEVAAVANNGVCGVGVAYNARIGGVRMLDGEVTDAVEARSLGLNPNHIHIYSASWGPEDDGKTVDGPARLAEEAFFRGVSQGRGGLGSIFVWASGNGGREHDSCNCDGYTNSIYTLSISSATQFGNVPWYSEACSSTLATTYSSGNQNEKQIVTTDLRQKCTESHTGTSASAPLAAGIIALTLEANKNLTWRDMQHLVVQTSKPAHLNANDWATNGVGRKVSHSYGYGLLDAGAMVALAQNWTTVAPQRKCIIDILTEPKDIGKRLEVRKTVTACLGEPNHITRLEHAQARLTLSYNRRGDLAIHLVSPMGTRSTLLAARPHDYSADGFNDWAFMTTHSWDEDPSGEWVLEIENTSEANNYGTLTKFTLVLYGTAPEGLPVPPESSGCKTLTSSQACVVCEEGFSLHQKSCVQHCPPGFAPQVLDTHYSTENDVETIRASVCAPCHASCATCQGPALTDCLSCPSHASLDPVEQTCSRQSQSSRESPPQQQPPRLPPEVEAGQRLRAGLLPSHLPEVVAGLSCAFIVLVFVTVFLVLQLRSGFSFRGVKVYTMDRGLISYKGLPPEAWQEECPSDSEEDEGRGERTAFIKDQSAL
# Measurement notes: furin cleavage Z-score vs untreated control; higher = more cleavage, active = 3.5 or more, inactive = 1 or less, 8 variable residues between constant flanks
# Stated conditions: 7.5 min
This is one part of the list. How many sequences the whole screen found active is unknown.
Reported property: furin cleavage Z-score
One number for each entry.

State the recorded furin cleavage Z-score for this entry: CAKVKREKRGAGNASASA [FS-454]
11.2

furin cleavage Z-score for CAPEKRSVFAAGNASASA [FS-2874] ?
-0.508

Dear colleague, I am looking for the recorded furin cleavage Z-score of the following sequence: CARLKRRVKSAGNASASA [FS-2351]
4.89

# return furin cleavage Z-score for each item in the list
1. CARLHRFAPPAGNASASA [HC1225]
2. CARKRRKRKKAGNASASA [FS-858]
3. CAEPPEAKRGAGNASASA [FS-1117]
4. CAGHQREKRGAGNASASA [FS-428]
5. CARLPRSVRSAGNASASA [FS-1263]
6. CARGKRSPKSAGNASASA [FS-2672]
7. CARLKKKVKQAGNASASA [FS-3196]

1: -1.52; 2: 0.153; 3: 0.349; 4: 11.3; 5: 5.43; 6: 11.3; 7: -1.36

Hi! Can you tell me furin cleavage Z-score for each of these sequences?
1. CAMEECSQTLAGNASASA [HC1758]
2. CARLKRRLVPAGNASASA [FS-2708]
3. CAHPLRKRRKAGNASASA [FS-131]
4. CALLISQAEAAGNASASA [HC530]
5. CARLPRSAPPAGNASASA [FS-2572]

1. 0.0304
2. 2.61
3. 8.81
4. -0.545
5. 5.97

All figures here come from the supplement of paper PMC3545927.
